Below, each of the binders is paired with its reported glycan array binding signal (z-score) value.
target: Neu5Ac(a2-3)Gal(b1-4)[Fuc(a1-3)]GlcNAc(b1-3)Gal(b1-4)GlcNAc; test: glycan array binding signal (z-score within array); higher = stronger binding; conditions: glycan notation: IUPAC condensed, linker removed
Shown is part of a subset that was picked to be rich in the strongest signals.
API doc: respond with a numeric literal and nothing else, no unit.

Kindly note the recorded glycan array binding signal (z-score) for F17fG (Escherichia coli), Q9RH91 (protein) MTNFYKVFLAVFILVCCNISHAAVSFIGSTENDVGPSQGSYSSTHAMDNLPFVYNTGHNIGYQNANVWRISGGFCVGLDGKVDLPVVGSLDGQSIYGLTEEVGLLIWMGDTNYSRGTAMSGNSWENVFSGWCVGNYVSTQGLSVHVRPVILKRNSSAQYSVQKTSIGSIRMRPYNGSSAGSVQTTVNFSLNPFTLNDTVTSCRLLTPSAVNVSLAAISAGQLPSSGDEVVAGTTSLKLQCDAGVTVWATLTDATTPSNRSDILTLTGASTATGVGLRIYKNTDSTPLKFGPDSPVKGNENQWQLSTGTETSPSVRLYVKYVNTGEGINPGTVNGISTFTFSYQ , which is -0.23

Please turn your attention to the following entry.
Kindly note the recorded glycan array binding signal (z-score) for Galatrox (Botrops atrox), P0DM53 (protein) NNCPQDWLPMNGLCYKIFDELKAWKDAEMFCRKYKPGCHLASIILYGESPEWAEGHSEVWLGLWDKKKDFSWEWTDR , which is 2.3
